# procedure.details: Single fragrance migration study in biphasic compositions, GC/MS analysis
# Assay type: physicochemical
# experimental.parameters: Bi phase formula high amount of water in the bottom phase (total water ~27.24%), upper phase
measurement.label: Result in % based on GC/MS analysis, Upper phase aromatics %

For orientation, consider the following solved cases.
compound	experimental.value
C=CC(C)(CCC=C(C)C)OC(C)=O (stereo not drawn) [linalyl acetate]	3.89%
CCCCCCCCCCCCCC(=O)OC(C)C [Isopropyl Myristate IPM, Isopropyl Myristate]	13.93%
CCCCCCC(C=O)=Cc1ccccc1 [hexylcinnamic aid, hexylcinnamic aldehyde]	1.67%
C=CC(C)(O)CCC=C(C)CC (mixture of isomers) [ethyl linalol]	0.83%
CC(C=O)Cc1ccc(C(C)(C)C)cc1 (stereo not drawn) [lilial]	4.18%

Turning now to a further record.
Q: Requested read-out: Result in % based on GC/MS analysis, Upper phase aromatics %. Entry: CC(C=O)Cc1ccc2c(c1)OCO2 (stereo not drawn) [helional]
Result: 0.91%

###

Consider the following compounds and their measured Result in % based on GC/MS analysis, Upper phase aromatics % readings.
# procedure.details: Single fragrance migration study in biphasic compositions, GC/MS analysis
# Format: physicochemical
# experimental.parameters: Bi phase formula low amount of water in the bottom phase (total water ~7.4%), upper phase
Please reply with the bare figure in % and do not write the unit itself.

For orientation, consider the following solved cases.
compound	experimental.value
CC(C=O)Cc1ccc2c(c1)OCO2 (centres unmarked)	0.40
CCCCCCC(C=O)=Cc1ccccc1	1.43
CC(C=O)Cc1ccc(C(C)(C)C)cc1 (centres unmarked)	2.70
CC1COCc2cc3c(cc21)C(C)(C)C(C)C3(C)C (stereo not drawn) [galaxolide (main peak), galaxolide]	26.53
CC(=O)OC1CCCCC1C(C)(C)C (single isomer, unassigned) [agrumex major isomer, agrumex]	0.45

Q: Requested read-out: Result in % based on GC/MS analysis, Upper phase aromatics %. Entry: C=CC(C)(O)CCC=C(C)CC (mixture of isomers)
Result: 1.11

Q: Requested read-out: Result in % based on GC/MS analysis, Upper phase aromatics %. Entry: CC(CC=O)CCCC(C)(C)O (centres unmarked) [hydroxycitronelial]
Result: 0.06

Q: Requested read-out: Result in % based on GC/MS analysis, Upper phase aromatics %. Entry: CCCCCCCCCCCCCC(=O)OC(C)C [Isopropyl Myristate IPM, Isopropyl Myristate]
Result: 23.40

Q: Requested read-out: Result in % based on GC/MS analysis, Upper phase aromatics %. Entry: CCCCCC1C(=O)CCC1CC(=O)OC (stereo not drawn) [hedione trans, hedione]
Result: 6.64

Q: Requested read-out: Result in % based on GC/MS analysis, Upper phase aromatics %. Entry: C=CC(C)(CCC=C(C)C)OC(C)=O (centres unmarked) [linalyl acetate]
Result: 3.38

Q: Requested read-out: Result in % based on GC/MS analysis, Upper phase aromatics %. Entry: CC(C)CC1CC(C)(O)CCO1 (centres unmarked)
Result: 1.86

###

# procedure.details: Single fragrance migration study in biphasic compositions, GC/MS analysis
# Format: physicochemical
# experimental.parameters: Bi phase formula low amount of water in the bottom phase (total water ~7.4%), lower phase
Entry flag: MET if Result in % based on GC/MS analysis, Lower phase aromatics % reaches 2%; NOT MET if it does not.

Q: Determine whether this compound has Result in % based on GC/MS analysis, Lower phase aromatics % no lower than 2%: CC(CC=O)CCCC(C)(C)O (centres unmarked) [hydroxycitronelial]
Result: NOT MET

Q: Determine whether this compound has Result in % based on GC/MS analysis, Lower phase aromatics % no lower than 2%: `CCCCCCC(C=O)=Cc1ccccc1`
Result: NOT MET

Q: Determine whether this compound has Result in % based on GC/MS analysis, Lower phase aromatics % no lower than 2%: C=CC(C)(O)CCC=C(C)CC (mixture of isomers)
Result: MET
